Tested on: HSV-1 strain 17 YFP-ICP4 in A549
Experiment: HSV-1 infection relative to DMSO (ICP4-YFP per H2B-RFP signal); higher = more viral infection (less antiviral activity), active = hit call of the paper
Conditions: 10 µM; 48 h; MOI: 0.1
Structures can show the parent of a compound that is named as a salt. Hit rate of the full screen: of about 1,700 compounds, about 15 (0.9%) showed activity. The list comes from a sample in which actives are over-represented; it also holds close analogues and randomly drawn compounds.
In this section, each of the compounds is paired with its reported HSV-1 infection.
Return type: number; implicit unit %.

Example entries begin here.
* COc1ccc2c(O[C@@H]3C[C@H]4C(=O)N[C@]5(C(=O)NS(=O)(=O)C6CC6)C[C@H]5/C=C\CCCCN(C)C(=O)[C@@H]4C3)cc(-c3nc(C(C)C)cs3)nc2c1C | 84.7
* CCCN(CCC)C(=O)C1=Cc2ccc(-c3ccc(C(=O)N4CCCC4)cc3)cc2N=C(N)C1 | 82.9

Notebook entry, HSV-1 strain 17 YFP-ICP4 in A549 assay: HSV-1 infection of `COC(=O)N[C@H](C(=O)N1CC2(CC2)C[C@H]1c1nc(-c2ccc3c(c2)C(F)(F)c2cc(-c4ccc5[nH]c([C@@H]6[C@H]7CC[C@H](C7)N6C(=O)[C@@H](NC(=O)OC)C(C)C)nc5c4)ccc2-3)c[nH]1)C(C)C` = ?
105

Recorded HSV-1 infection for Cc1cc(N2CCN([C@@H]3CN[C@H](C(=O)N4CCSC4)C3)CC2)n(-c2ccccc2)n1 [Teneligliptin hydrobromide] with HSV-1 strain 17 YFP-ICP4 in A549, please?
113

Give recorded HSV-1 infection with HSV-1 strain 17 YFP-ICP4 in A549 for the following compound: `CCOc1ccc(Cc2cc([C@]34OC[C@](CO)(O3)[C@@H](O)[C@H](O)[C@H]4O)ccc2Cl)cc1`
114

# value lookup — system HSV-1 strain 17 YFP-ICP4 in A549, readout HSV-1 infection, item `Cc1ccccc1-c1cc(N2CCN(C)CC2)ncc1N(C)C(=O)C(C)(C)c1cc(C(F)(F)F)cc(C(F)(F)F)c1`
114

====

Tested on: HSV-1 strain 17 YFP-ICP4 in A549
Experiment: HSV-1 infection relative to DMSO (ICP4-YFP per H2B-RFP signal); higher = more viral infection (less antiviral activity), active = hit call of the paper
Details: 10 µM; 48 h; MOI: 0.1
About 15 (0.9%) of roughly 1,700 compounds showed activity. This is one part of a sample in which actives are shown more often than they occur.
metric name: HSV-1 infection (%)
Numbers only; they are read as %.

Known HSV-1 infection results, listed for orientation:
• Cn1ncc(Cl)c1-c1cc(C(=O)N[C@H](CN)Cc2cccc(F)c2)sc1Cl = 52.8
• CCCCCCCCCCCCC[N+](C)(C)Cc1ccccc1 [Benzalkonium chloride] = 65.3
• CNC(=O)[C@H](Cc1ccccc1)NC(=O)[C@H](CC(C)C)[C@H](CSc1cccs1)C(=O)NO = 45.6
• COC[C@H]1C[C@@H](c2nc(-c3ccc4c(c3)COc3cc5c(ccc6nc([C@@H]7CC[C@H](C)N7C(=O)[C@@H](NC(=O)OC)C(C)C)[nH]c65)cc3-4)c[nH]2)N(C(=O)[C@H](NC(=O)OC)c2ccccc2)C1 = 102
• CC(C)(CO)C(O)C(=O)NCCCO (racemic) = 94

Then there is this compound:
Tell me the measured HSV-1 infection of `CC1(C)CCC(CN2CCN(c3ccc(C(=O)NS(=O)(=O)c4ccc(NCC5CCOCC5)c([N+](=O)[O-])c4)c(Oc4cnc5[nH]ccc5c4)c3)CC2)=C(c2ccc(Cl)cc2)C1` , please.
96

====

Test system: HSV-1 strain 17 YFP-ICP4 in A549
Test: HSV-1 infection relative to DMSO (ICP4-YFP per H2B-RFP signal); higher = more viral infection (less antiviral activity), active = hit call of the paper
Settings: 10 µM; 48 h; MOI: 0.1
About 15 (0.9%) of roughly 1,700 compounds showed activity. Only a selection was taken, and actives are over-represented in it overall.
In this section, each of the compounds is paired with its reported HSV-1 infection.
Respond with the bare value in %.

Reference set (6 entries):
* CC(C)[C@H]1C(=O)N[C@@H](CCCN=C(N)N)C(=O)NCC(=O)N[C@@H](CC(=O)O)C(=O)N[C@H](Cc2ccccc2)C(=O)N1C | 86.4
* O=C([O-])[O-].[Na+].[Na+] [Sodium carbonate] | 88
* CNC[C@H](O)[C@@H](O)[C@H](O)[C@H](O)CO.CNC[C@H](O)[C@@H](O)[C@H](O)[C@H](O)CO.O=C([O-])CN(CCN(CC(=O)[O-])CC(=O)O)CCN(CC(=O)[O-])CC(=O)O.[Gd+3] [Gadopentetate Dimeglumine] | 77.6
* Cc1c(C(C)C)c(=O)n(-c2ccccc2)n1C [Propyphenazone (4-Isopropylantipyrine)] | 98.5
* CC(=O)OCC(CCn1cnc2cnc(N)nc21)COC(C)=O | 102
* COc1ccc(-c2nc3cc(C4=NNC(=O)CC4C)ccc3[nH]2)cc1 (stereo not drawn) | 68.5

Value lookup for HSV-1 infection; key = `O=C(NC[C@H](O)CO)c1ccncc1Nc1ccc(I)cc1F`
34.8

Data request, read-out HSV-1 infection, for OC(c1ccccc1)(c1ccccc1)C12CC[N+](CCOCc3ccccc3)(CC1)CC2 [Umeclidinium bromide]
100

# get_value(readout='HSV-1 infection', item= `C1CNCCNCCNCCN1` )
105

For the compound COc1cc(C(=O)O)ccc1NC(=O)[C@@H]1N[C@@H](CC(C)(C)C)[C@](C#N)(c2ccc(Cl)cc2F)[C@H]1c1cccc(Cl)c1F [Idasanutlin (RG-7388)] , what HSV-1 infection is on record?
101

Give its HSV-1 infection value. Item: `C=C[C@]1(C)C[C@@H](OC(=O)CS[C@@H]2C[C@H]3CC[C@@H](C2)N3C)[C@]2(C)[C@H](C)CC[C@]3(CCC(=O)[C@H]32)[C@@H](C)[C@@H]1O`
32.7

====

Measured HSV-1 infection values are reported for all entries that follow.
Test system: HSV-1 strain 17 YFP-ICP4 in A549
Experiment: HSV-1 infection relative to DMSO (ICP4-YFP per H2B-RFP signal); higher = more viral infection (less antiviral activity), active = hit call of the paper
Conditions: 10 µM; 48 h; MOI: 0.1
About 15 (0.9%) of roughly 1,700 compounds showed activity. Shown is part of a subset that was picked to be rich in actives.
Number in %, nothing else.

Some compounds with recorded HSV-1 infection:
- Cc1ccc(C(C)C)c(O)c1: 95.3
- C[C@H](Oc1ccc(S(C)(=O)=O)cc1C(=O)N1CCN(c2ncc(C(F)(F)F)cc2F)CC1)C(F)(F)F: 92.8

// query HSV-1 infection value for entry `NC(=O)[C@@H](CCC(F)(F)F)N(Cc1ccc(-c2ncon2)cc1F)S(=O)(=O)c1ccc(Cl)cc1`
95.4

Return reported HSV-1 infection; argument: `Nc1ncn([C@@H]2O[C@H](CO)[C@@H](O)[C@H]2O)c(=O)n1`
5.54

Which HSV-1 infection value belongs to `Nc1ncn([C@H]2C[C@H](O)[C@@H](CO)O2)c(=O)n1` ?
7.64

Entry under review: CCC(=O)O[C@]1(C(=O)CCl)[C@@H](C)C[C@H]2[C@@H]3C[C@H](F)C4=CC(=O)C=C[C@]4(C)[C@@]3(F)[C@@H](O)C[C@@]21C [Halobetasol Propionate] . Reported HSV-1 infection?
60.2

For the compound `Nc1nc(Cl)nc2c1ncn2[C@H]1C[C@H](O)[C@@H](CO)O1` , what HSV-1 infection is on record?
22.3

HSV-1 infection lookup needed for `COc1ccc([C@]2(C#N)CC[C@@H](C(=O)O)CC2)cc1OC1CCCC1` , thanks.
94

====

System: HSV-1 strain 17 YFP-ICP4 in A549
Test: HSV-1 infection relative to DMSO (ICP4-YFP per H2B-RFP signal); higher = more viral infection (less antiviral activity), active = hit call of the paper
Conditions: 10 µM; 48 h; MOI: 0.1
Where a name gives a salt, the structure may show the parent alone. Out of some 1,700 compounds screened, about 15 (0.9%) showed activity. This excerpt belongs to a sample that is enriched for actives.
Let's look at some compounds and their measured HSV-1 infection.

Sample answers from the record:
• O=C(O)CCn1c2c(c3ccccc31)C[C@H](NS(=O)(=O)c1ccc(F)cc1)CC2 [Ramatroban] = 96.2% (inactive)
• CN(C)Cc1ccc(S(=O)(=O)n2ccc(/C=C/C(=O)NO)c2)cc1 [Resminostat] = 64.2% (inactive)
• CO/N=C(\C(=O)N[C@@H]1C(=O)N2C(C(=O)[O-])=C(C[n+]3cccc4c3CCC4)CS[C@H]12)c1csc(N)n1 [Cefpirome sulfate] = 108% (inactive)

Now for another entry.
# HSV-1 infection lookup, item CCCN(CCc1cccs1)[C@H]1CCc2c(O)cccc2C1 [Rotigotine]
27.9% (inactive)
